# System: OVCAR-5 ovarian
# protocolDetails: NCI-60 one-dose screen, 48 h
# appliedConditions: 10 µM unless noted
Compounds without any hit were thinned out: in the full panel of roughly 83,000, 20% have a hit. Active and inactive are the calls of the source. How the source made its calls: active means growth percent below 10; inactive means the rest.
Your answer must be one of the following: T = active, F = inactive

Query: Call for entry Nc1ccc(-c2cc3c(Nc4ccc(Oc5cccc(C(F)(F)F)c5)c(Cl)c4)ncnc3s2)cc1 :
Response: F

Query: In this assay, the call recorded for CCNC(=O)Oc1ccc(/C(=C(\C)c2ccc(Cl)cc2)c2ccc(OCCN3CCCCC3)cc2)cc1 was what?
Response: F

Query: Outcome logged for O=C1CC(=NCC(=O)n2c(-c3ccccc3)nc3ccccc32)NN1 in this assay:
Response: F

Query: Identify the outcome logged in this assay for the molecule shown: Cn1c(=O)c2c(nc3n(-c4ccc(Cl)cc4Cl)c(Sc4nc(-c5ccccc5)c(C#N)c(=O)[nH]4)cn23)n(C)c1=O
Response: F

Query: Entry COc1ccc(CN2c3ccccc3Sc3ccccc32)c(C(F)(F)F)c1 : call = ?
Response: F

Query: How did this test come out for CCN(CC)c1ccc2c(c1)Oc1nc(N)c(C#N)c(N)c1C2Sc1ccc(SC)cc1 (centres undefined) ?
Response: T

Query: Assay result, entry Fc1ccc(CNc2cccc3[nH]c(C(F)(F)F)nc23)cc1 — outcome?
Response: F

Query: What did this assay record as the result for COc1ccc(C2Nc3c(c(C(C)(C)C)nn3-c3ccccc3)C(=O)CS2)cc1 (centres undefined) ?
Response: F

Query: // param item: CCc1c(Nc2ccccc2C)nc(N)[nH]c1=O ; yields the recorded call
Response: F

Query: Recorded call for CCOC(=O)c1c(C)oc2ncnc(N3CCN(C(=O)COc4ccc(SC)cc4)CC3)c12 ?
Response: F

Query: // outcome(item) with item = COc1cccc(-c2nc3sccn3c2-c2ccnc(NCCNS(=O)(=O)c3ccccc3)c2)c1
Response: F

Query: // param item: CCOc1cc2ncc(C#N)c(Nc3ccc(OCc4cccc(F)c4)c(Cl)c3)c2cc1NC(=O)CC1CCSS1 (centres undefined) ; yields the recorded call
Response: F

Query: Which outcome was entered for the molecule COc1cc(Nc2cc(C)nc(N3CCN(c4ccnc5cc(Cl)ccc45)CC3)n2)cc(OC)c1 in this test?
Response: F

Query: Given Cc1ccccc1COc1ccc(-c2ccnn2-c2ccc(Cl)cc2)cc1 , state the outcome it received in this test.
Response: F

Query: Which outcome did this test record for the molecule Cc1ccc(OC(=O)c2ccc(Cl)cc2)cc1 ?
Response: F

Query: GET /call?item= N#Cc1nnn(-c2ccc(S(N)(=O)=O)cc2)c1NCC(=O)c1ccccc1 returns the recorded outcome of this test.
Response: F

Query: Could you kindly confirm the outcome this assay logged for O=C(N=Nc1c(O)[nH]c2ccc(Br)cc12)c1cc(-c2ccccc2)on1 ?
Response: F

Query: # fetch the recorded call for CN(C)C(=S)N=Nc1c(O)[nH]c2ccccc12 here
Response: F

Query: Would you mind telling me which call this test gave COC(=O)c1ccc2oc(NC(=O)c3ccc(Nc4ccc([N+](=O)[O-])cc4C)c([N+](=O)[O-])c3)nc2c1 ?
Response: F

* * *

# Tested on: DU-145 prostate
# protocolDetails: NCI-60 one-dose screen, 48 h (100 = growth as untreated, 0 = no growth, -100 = all killed)
# appliedConditions: 10 µM unless noted
# Experimental: Cells are grown in 96 well plates and exposed to the test compound for 48 hours. Compounds are tested at a single concentration, which is 10^-5 M for most compounds. The reported endpoint is percent growth (GI% or GIPRCNT), where numbers from 0 - 100% represent growth inhibition, and numbers from -100% - 0 represent cell death. For example, a value of 40 represents 60% growth inhibition. A value of 0 means no net growth occurred over the course of the experiment. […]
The panel holds about 83,000 compounds, 20% with a hit somewhere; the sample as a whole holds those more often. The source made the active and inactive calls. The calls were made as follows: active = growth percent below 10; inactive = the rest.
Hi there, I'd appreciate the recorded growth for every entry that follows.

Query: Which growth is reported for this compound? COc1ccc(C(=O)COc2cccc(/C=C3\CSc4ccccc4C3=O)c2)cc1
Response: 102% (inactive)

Query: Requested field: growth. Item: COc1cc2c(cc1OC)C(Sc1ccc(SC)cc1)c1c(nc(N)c(C#N)c1N)O2 (stereo not drawn)
Response: -75.8% (active)

Query: Would you kindly share the measured growth for O=C1OC(c2ccccc2)C(O)=C1c1ccccc1 (stereo not drawn) ?
Response: 112% (inactive)

Query: Record request: growth value, item N#C/C(=C\c1ccc(-c2ccc(Cl)c(Cl)c2)o1)c1nc(-c2ccco2)cs1
Response: 114% (inactive)

Query: I am curious: what growth value has been reported for Cn1c(=O)[nH]c(=O)c2nc(CCC(=O)NCCC(=O)O)c(=O)[nH]c21 ?
Response: 113% (inactive)

Query: May I ask what growth has been recorded for Cc1nn(-c2cc(=O)[nH]c3ccc(Cl)cc23)c(N)c1C#N ?
Response: 114% (inactive)

Query: Look up growth for this compound: C=CC(=O)Nc1cccc(-c2nc(SC)nc(NCc3ccccc3)c2C#N)c1
Response: 60.8% (inactive)

Query: # lookup: growth of C#Cc1cccc(NC(=O)c2ccccc2NC(=O)C=C)c1
Response: 95.6% [8.25 µM] (inactive)
